# assay.protocol: Cytotoxicity against African green monkey Vero cells assessed as morphological changes by microscopic method
# Type: cell-based
# test.context: chlorocebus sabaeus
Each record here notes measured CC50.
value.type: CC50 (µM)

input.smiles | value.type | modifier.sign | number
C/C=C(\C)C(=O)O[C@@H]1[C@@H](C)[C@]2(O)[C@@H]3C=C(C)C(=O)[C@@H]3CC(CO)=C[C@H]2[C@@H]2C(C)(C)[C@]12OC(=O)C(C)C | CC50 | = | 116
CC(=O)O[C@@H]1[C@@H](C)[C@]2(O)[C@@H]3C=C(C)C(=O)[C@H]3CC(CO)=C[C@H]2[C@@H]2C(C)(C)[C@]12OC(=O)C(C)C | CC50 | = | 172
C/C=C(\C)C(=O)O[C@@H]1[C@@H](C)[C@]2(O)[C@@H]3C=C(C)C(=O)[C@H]3CC(CO)=C[C@H]2[C@@H]2C(C)(C)[C@]12OC(=O)C(C)C | CC50 | = | 20
C/C=C(\C)C(=O)O[C@@H]1[C@@H](C)[C@]2(O)[C@@H]3C=C(C)C(=O)[C@H]3CC(C)=C[C@H]2[C@@H]2C(C)(C)[C@]12OC(=O)C(C)C | CC50 | = | 154
C=C1[C@H](OC(C)=O)[C@@H](OC(C)=O)[C@@H](OC(C)=O)C(C)(C)/C=C/[C@@H](C)C(=O)[C@@]2(OC(C)=O)C[C@@](C)(OC(C)=O)[C@H](OC(C)=O)[C@@H]2[C@H]1OC(C)=O | CC50 | > | 144
